What inhibition at 30 µg/mL was measured for each of the following?
- System: NRK
- METHOD_NOTES: Effect on morphological reversion in src transformed NRK cells at 30 ug/mL
- Type: functional
- EXPERIMENTAL_CONDITIONS: Rattus norvegicus

Some compounds with known inhibition at 30 µg/mL results, for comparison:
[[record]]
compound = "CCCC[C@@]1(OC(=O)CCC(=O)O)CC[C@]2(CC[C@H](C)[C@@H](C/C=C(C)/C=C/CO)O2)O[C@H]1/C=C/C(C)=C/C(=O)O"
observed_value = "< 10%"

[[record]]
compound = "CCCC[C@@]1(OC(=O)CCC(=O)O)CC[C@]2(CC[C@H](C)[C@@H](C/C=C(C)/C=C/[C@H](O)[C@@H](O)/C=C/C(=O)O)O2)O[C@H]1/C=C/C(C)=C/C(=O)O [4-HYDROXY REVEROMYCIN A]"
observed_value = "20%"

[[record]]
compound = "CCCC[C@@]1(OC(=O)CCC(=O)O)CC[C@]2(CC[C@H](C)[C@@H](C/C=C(C)/C=C/[C@H](O)[C@@H](C)/C=C/C(=O)O)O2)O[C@H]1/C=C/C(C)=C/C(=O)OC"
observed_value = "> 80%"


Consider the record given below.
State the recorded inhibition at 30 µg/mL for this entry: CCCC[C@@]1(OC(=O)CCC(=O)O)CC[C@]2(CC[C@H](C)[C@@H](C/C=C(C)/C=C/[C@@H](O)[C@@H](C)/C=C/C(=O)O)O2)O[C@H]1/C=C/C(C)=C/C(=O)O [5-EPIREVEROMYCIN A] < 10%

###

The following compounds each carry a recorded pIC50 for Isoleucine--tRNA ligase, cytoplasmic (Homo sapiens, UniProt P41252).
pIC50: −log10 of the molar value.

Field: example entries. Status: answers known.
[[record]]
record_smiles = "CCCC[C@@]1(OC(=O)CCC(=O)O)CC[C@]2(CC[C@H](C)[C@@H](C/C=C(\\C)COC(=O)CCC(=O)O)O2)O[C@H]1/C=C/C(C)=C/C(=O)O"
observable = "pIC50"
observed_value = "< 5.80"

[[record]]
record_smiles = "CCCC[C@]1([C@H](/C=C/C(C)=C/C(=O)O)OC(=O)CCC(=O)O)CC[C@]2(CC[C@H](C)[C@@H](C/C=C(C)/C=C/[C@H](O)[C@@H](C)/C=C/C(=O)O)O2)O1"
observable = "pIC50"
observed_value = "< 5.82"

[[record]]
record_smiles = "CCCC[C@@]1(OC(=O)CCC(=O)O)CC[C@]2(CC[C@H](C)[C@@H](C/C=C(C)/C=C/[C@H](OC(C)=O)[C@@H](C)/C=C/C(=O)O)O2)O[C@H]1/C=C/C(C)=C/C(=O)O"
observable = "pIC50"
observed_value = "< 5.85"

[[record]]
record_smiles = "CCCC[C@@]1(OC(=O)CCC(=O)O)CC[C@]2(CC[C@H](C)[C@@H](C/C=C(C)/C=C/[C@H](O)[C@@H](C)/C=C/C(=O)O)O2)O[C@H]1/C=C/C(C)=C/C(=O)OC"
observable = "pIC50"
observed_value = "< 5.83"

[[record]]
record_smiles = "CCCC[C@@]1(OC(=O)CCC(=O)O)CC[C@]2(CC[C@H](C)[C@@H](C/C=C(\\C)CO)O2)O[C@H]1/C=C/C(C)=C/C(=O)O"
observable = "pIC50"
observed_value = "< 5.73"

[[record]]
record_smiles = "CCCC[C@@]1(OC(=O)CCC(=O)O)CC[C@]2(CC[C@H](C)[C@@H](C/C=C(C)/C=C/C(=O)O)O2)O[C@H]1/C=C/C(C)=C/C(=O)O"
observable = "pIC50"
observed_value = "< 5.76"


List the reported pIC50 of each compound below.
1. CCCC[C@@]1(OC(=O)CCC(=O)O)CC[C@]2(CC[C@H](C)[C@@H](C/C=C(C)/C=C/[C@H](O[Si](C)(C)C(C)(C)C)[C@@H](C)/C=C/C(=O)O)O2)O[C@H]1/C=C/C(C)=C/C(=O)O
2. CC(/C=C/[C@H](O)[C@@H](C)/C=C/C(=O)O)=C\C[C@H]1O[C@]2(CC[C@H](C)[C@H](/C=C/C(C)=C/C(=O)O)O2)CC[C@@H]1C
3. CCCC[C@@]1(OC(=O)CCC(=O)O)CC[C@]2(CC[C@H](C)[C@@H](CCO)O2)O[C@H]1/C=C/C(C)=C/C(=O)O
4. CC(/C=C/[C@H](OC(=O)CCC(=O)O)[C@@H](C)/C=C/C(=O)O)=C\C[C@H]1O[C@@]2(CC[C@H](C)[C@H](/C=C/C(C)=C/C(=O)O)O2)CC[C@@H]1C

1. < 5.89
2. < 5.70
3. < 5.70
4. < 5.78
